Hey, just so you know, these numbers are from patent US20240132492A1.

- Target Entity: AKT2 (Homo sapiens)
- Construct: AKT1, AKT2, and AKT3 proteins in H1975-OR cells; endogenous in cells; host or cells: H1975-OR (osimertinib-resistant H1975)
- Assay Details: Western Blot, degradation of AKT2 protein in H1975-OR cells
- Format: cell-based
- Study Conditions: 1000 nM, 24 hours, maximum degradation rate
Assay Metric: Dmax at 1 µM (%)

Recorded Dmax at 1 µM, per entry:
{"Molecular String": "CCCCCCCCN1CCN(c2ccc(Nc3ncc4c(C)cc(=O)n(-c5cccc(NC(=O)C6CC6)c5)c4n3)c(OC)c2)CC1", "Target Entity": "AKT2 (Homo sapiens)", "Unit Symbol": "%", "Dmax at 1 µM": 37.1}
{"Molecular String": "C=CC(=O)Nc1cccc(-n2c(=O)cc(C)c3cnc(Nc4ccc(N5CCN(CCCCCCCCCCNC(=O)CC67CC8CC(CC(C8)C6)C7)CC5)cc4OC)nc32)c1", "Target Entity": "AKT2 (Homo sapiens)", "Unit Symbol": "%", "Dmax at 1 µM": 0}

[P] COc1cc(N2CCN(CCCCCCCCNC(=O)CC34CC5CC(CC(C5)C3)C4)CC2)ccc1Nc1ncc2c(C)cc(=O)n(-c3cccc(NC(=O)C4CC4)c3)c2n1
[Q] COc1cc(N2CCN(CCCCCCCCCCCCNC(=O)CC34CC5CC(CC(C5)C3)C4)CC2)ccc1Nc1ncc2c(C)cc(=O)n(-c3cccc(NC(=O)C4CC4)c3)c2n1
[R] C=CC(=O)Nc1cccc(-n2c(=O)cc(C)c3cnc(Nc4ccc(N5CCN(CCCCCCCCCCCCCCNC(=O)CC67CC8CC(CC(C8)C6)C7)CC5)cc4OC)nc32)c1
[S] COc1cc(N2CCN(CCCCCCCCCCCCNC(=O)CC34CC5CC(CC(C5)C3)C4)CC2)ccc1Nc1ncc2c(C)cc(=O)n(-c3cccc(NCC4CNC4)c3)c2n1
Could you please sort these 4 entries by Dmax at 1 µM from high to low? Answer with the labels in sequence, matching the requested order.
R, S, Q, P
(R: 47%, S: 23.6%, Q: 15.3%, P: 0%)

----------
- System: HCC1937
- Assay Details: CCK-8 tumor cell proliferation, HCC1937
- Format: cell-based
- Study Conditions: Homo sapiens, HCC1937 cells, 72 hours
Assay Metric: IC50

Consider the reported IC50 for these molecules:
{"Molecular String": "COc1cc(N2CCN(C(=O)CC34CC5CC(CC(C5)C3)C4)CC2)ccc1Nc1ncc2c(C)cc(=O)n(-c3cccc(NC(=O)C4CC4)c3)c2n1", "IC50": "> 10 µM"}
{"Molecular String": "COc1cc(N2CCN(CCCCCCCCCCCCNC(=O)CC34CC5CC(CC(C5)C3)C4)CC2)ccc1Nc1ncc2c(C)cc(=O)n(-c3cccc(NC(=O)C4CC4)c3)c2n1", "IC50": "> 10 µM"}
{"Molecular String": "COc1cc(N2CCN(C(=O)C34CC5CC(CC(C5)C3)C4)CC2)ccc1Nc1ncc2c(C)cc(=O)n(-c3cccc(NC(=O)C4CC4)c3)c2n1", "IC50": "> 10 µM"}
{"Molecular String": "COc1cc(N2CCN(CCCCNC(=O)CC34CC5CC(CC(C5)C3)C4)CC2)ccc1Nc1ncc2c(C)cc(=O)n(-c3cccc(NC(=O)C4CC4)c3)c2n1", "IC50": "0.002 to 0.005 µM"}
{"Molecular String": "COc1cc(N2CCN(C(=O)NC34CC5CC(CC(C5)C3)C4)CC2)ccc1Nc1ncc2c(C)cc(=O)n(-c3cccc(NC(=O)C4CC4)c3)c2n1", "IC50": "4 µM"}

Next, consider the following molecule.
Quick check: IC50 on HCC1937, item `COc1cc(N2CCN(CCNC(=O)CC34CC5CC(CC(C5)C3)C4)CC2)ccc1Nc1ncc2c(C)cc(=O)n(-c3cccc(NC(=O)C4CC4)c3)c2n1` ?
> 10 µM

----------
- Target Entity: AKT3 (Homo sapiens, UniProt Q9Y243)
- Sequence (Q9Y243 whole entry): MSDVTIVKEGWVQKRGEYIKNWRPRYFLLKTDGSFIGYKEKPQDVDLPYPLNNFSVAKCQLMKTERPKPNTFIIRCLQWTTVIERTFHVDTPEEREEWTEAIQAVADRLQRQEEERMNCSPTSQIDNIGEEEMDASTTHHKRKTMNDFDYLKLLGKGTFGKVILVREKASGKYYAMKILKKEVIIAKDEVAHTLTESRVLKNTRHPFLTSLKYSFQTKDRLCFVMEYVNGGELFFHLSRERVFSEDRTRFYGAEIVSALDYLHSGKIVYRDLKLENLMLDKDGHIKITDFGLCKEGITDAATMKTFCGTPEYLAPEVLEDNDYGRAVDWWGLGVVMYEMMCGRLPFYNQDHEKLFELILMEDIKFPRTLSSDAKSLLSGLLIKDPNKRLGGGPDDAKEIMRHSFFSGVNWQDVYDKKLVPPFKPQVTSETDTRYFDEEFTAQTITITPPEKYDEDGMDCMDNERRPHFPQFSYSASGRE
- Assay Details: Western Blot, degradation of AKT3 protein in H1975-OR cells
- Type: cell-based
- Design: endogenous in cells; host or cells: H1975-OR (osimertinib-resistant H1975)
- Study Conditions: 1000 nM, 24 hours, maximum degradation rate
Assay Metric: Dmax at 1 µM (%)

{"Molecular String": "C=CC(=O)Nc1cccc(-n2c(=O)cc(C)c3cnc(Nc4ccc(N5CCN(CCOCCOCCNC(=O)CC67CC8CC(CC(C8)C6)C7)CC5)cc4OC)nc32)c1", "Target Entity": "AKT3 (Homo sapiens, UniProt Q9Y243)", "Dmax at 1 µM [%]": 67.6}

[P] CCC(=O)Nc1cccc(-n2c(=O)cc(C)c3cnc(Nc4ccc(N5CCN(CCCCCCCCNC(=O)CC67CC8CC(CC(C8)C6)C7)CC5)cc4OC)nc32)c1
[Q] COc1cc(N2CCN(CCCCCCCCCCCCNC(=O)CC34CC5CC(CC(C5)C3)C4)CC2)ccc1Nc1ncc2c(C)cc(=O)n(-c3cccc(NCC4CNC4)c3)c2n1
Hi team, can someone confirm which has the larger Dmax at 1 µM: P or Q ? Thanks. Your answer should be the label of the entry you select.
P
(P: 61.6%, Q: 40.1%)

----------
- Target Entity: AKT3 (Homo sapiens)
- Assay Details: Western Blot, degradation of AKT3 protein in H1975-OR cells
- Type: cell-based
- Design: endogenous in cells; host or cells: H1975-OR (osimertinib-resistant H1975)
- Study Conditions: 1000 nM, 24 hours, maximum degradation rate
Assay Metric: Dmax at 1 µM (%)

[P] COc1cc(N2CCN(CCCCCCCCNC(=O)C3C[C@H]4CC[C@@H]3C4)CC2)ccc1Nc1ncc2c(C)cc(=O)n(-c3cccc(NC(=O)C4CC4)c3)c2n1 (some centres unmarked) [ZX-HYT-61]
[Q] C=CC(=O)Nc1cccc(-n2c(=O)cc(C)c3cnc(Nc4ccc(N5CCN(CCCCCCCCNC(=O)CC67CC8CC(CC(C8)C6)C7)CC5)cc4OC)nc32)c1 [ZX-HYT-03]
[R] COc1cc(N2CCN(CCCCCCCCCCCCNC(=O)CC34CC5CC(CC(C5)C3)C4)CC2)ccc1Nc1ncc2c(C)cc(=O)n(-c3cccc(OCC4CC4)c3)c2n1 [ZX-HYT-40]
[S] C=CC(=O)Nc1cccc(-n2c(=O)cc(C)c3cnc(Nc4ccc(N5CCN(CCCCCCNC(=O)CC67CC8CC(CC(C8)C6)C7)CC5)cc4OC)nc32)c1 [ZX-HYT-02]
Method: rank(items above, key=Dmax at 1 µM, ascending=True) # list labels per requested ordering
P, S, R, Q
(P: 15.9%, S: 30.8%, R: 53%, Q: 89.1%)

----------
- Target Entity: AKT2 (Homo sapiens, UniProt P31751)
- Construct: AKT1, AKT2, and AKT3 proteins in H1975-OR cells; endogenous in cells; host or cells: H1975-OR (osimertinib-resistant H1975)
- Sequence (P31751 whole entry): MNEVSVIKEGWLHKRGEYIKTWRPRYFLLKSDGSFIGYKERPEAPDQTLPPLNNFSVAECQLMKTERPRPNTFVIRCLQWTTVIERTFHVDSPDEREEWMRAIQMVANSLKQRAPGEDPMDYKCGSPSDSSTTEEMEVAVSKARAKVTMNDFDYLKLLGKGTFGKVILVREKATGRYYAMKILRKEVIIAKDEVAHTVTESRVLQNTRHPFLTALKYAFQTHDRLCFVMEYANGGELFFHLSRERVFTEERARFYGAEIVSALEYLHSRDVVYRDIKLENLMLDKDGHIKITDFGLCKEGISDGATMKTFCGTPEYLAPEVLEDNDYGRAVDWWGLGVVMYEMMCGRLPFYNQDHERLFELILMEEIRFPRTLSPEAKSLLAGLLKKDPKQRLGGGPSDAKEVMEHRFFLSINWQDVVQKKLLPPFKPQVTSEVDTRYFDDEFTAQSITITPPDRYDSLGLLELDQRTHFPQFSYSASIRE
- Assay Details: Western Blot, degradation of AKT2 protein in H1975-OR cells
- Assay type: cell-based
- Study Conditions: 1000 nM, 24 hours, maximum degradation rate
Assay Metric: Dmax at 1 µM (%)

{"Compound": "COc1cc(N2CCN(CCCCCCCCNC(=O)CC(C)(C)C)CC2)ccc1Nc1ncc2c(C)cc(=O)n(-c3cccc(NC(=O)C4CC4)c3)c2n1 [ZX-HYT-33]", "Dmax at 1 µM, %": 43.7}
{"Compound": "COc1cc(N2CCN(CCCCCCCCCCCCNC(=O)CC34CC5CC(CC(C5)C3)C4)CC2)ccc1Nc1ncc2c(C)cc(=O)n(-c3cccc(N(C)C)c3)c2n1 [ZX-HYT-43]", "Dmax at 1 µM, %": 30.5}
{"Compound": "COc1cc(N2CCN(CCCCCCCCCCCCNC(=O)CC34CC5CC(CC(C5)C3)C4)CC2)ccc1Nc1ncc2c(C)cc(=O)n(-c3cccc(NC4CNC4)c3)c2n1 [ZX-HYT-45]", "Dmax at 1 µM, %": 17.6}
{"Compound": "COc1cc(N2CCN(CCCCCCCCCCCCNC(=O)CC34CC5CC(CC(C5)C3)C4)CC2)ccc1Nc1ncc2c(C)cc(=O)n([C@H]3CCCN(C(=O)C4CC4)C3)c2n1 [ZX-HYT-22]", "Dmax at 1 µM, %": 0}

[1] COc1cc(N2CCN(CCCCCCCCCCCCNC(=O)CC34CC5CC(CC(C5)C3)C4)CC2)ccc1Nc1ncc2c(C)cc(=O)n([C@H]3CCC[C@@H](C(=O)NC4CC4)C3)c2n1 [ZX-HYT-21]
[2] COc1cc(N2CCN(CCCCCCCCCCCCNC(=O)CC34CC5CC(CC(C5)C3)C4)CC2)ccc1Nc1ncc2c(C)cc(=O)n(-c3cccc(OCC4CC4)c3)c2n1 [ZX-HYT-40]
Looking at 1 and 2 , which one comes out lower in Dmax at 1 µM terms? Record your answer as the label of the chosen record.
1
(1: 0%, 2: 30.7%)
